system: HCT-116 tumor xenografts; assay: HCT-116 colon carcinoma xenograft model; assay type: in vivo, athymic (nu/nu) mice; conditions: 100 μmol/kg i.v. 3×/week for 3 weeks
Assay endpoint: Dead/Total

Guide cases for Dead/Total, answers given:
- Smiles code: "CO[C@@H](C(=O)N[C@H]1CC[C@@H](OC(=O)CCc2cccnc2)CNC1=O)[C@H](O)[C@@H](O)[C@H](O)/C=C/C(C)(C)C"
  Measured value: "0/8"
- Smiles code: "CO[C@@H](C(=O)N[C@H]1CC[C@@H](OC(=O)C2CCCCC2)CNC1=O)[C@H](O)[C@@H](O)[C@H](O)/C=C/C(C)(C)C"
  Measured value: "0/8"
- Smiles code: "CO[C@@H](C(=O)N[C@H]1CC[C@@H](OC(=O)CCc2ccccc2)CNC1=O)[C@H](O)[C@@H](O)[C@H](O)/C=C/C(C)(C)C"
  Measured value: "1/8"

// moving on: another record for Dead/Total
**Q:** Bench note: what Dead/Total did CO[C@@H](C(=O)N[C@H]1CC[C@@H](OC(=O)C2CCCC2)CNC1=O)[C@H](O)[C@@H](O)[C@H](O)/C=C/C(C)(C)C show?
**A:** 0/8

* * *

tested on: MDA-MB-435 breast carcinoma; experiment: Anchorage Dependent Growth Monolayer Assay (ADGMA), MDA-MB-435; assay type: cell-based, human; conditions: 3-day exposure, MTS readout; read-out: IC50 (average±S.D.) MDA-MB-435
Assay endpoint: IC50 (nM)
Answers are plain numbers, in nM.

Take a look at these entries with their results.
- Molecule: "CO[C@@H](C(=O)N[C@H]1CC[C@@H](OC(=O)Cc2c[nH]c3ccccc23)CNC1=O)[C@H](O)[C@@H](O)[C@H](O)/C=C/C(C)(C)C [Ex. 14]"
  IC50 [nM]: 1240
- Molecule: "CO[C@@H](C(=O)N[C@H]1CC[C@@H](OC(=O)C2CCCCCC2)CNC1=O)[C@H](O)[C@@H](O)[C@H](O)/C=C/C(C)(C)C [Ex. 3]"
  IC50 [nM]: 32
- Molecule: "CO[C@@H](C(=O)N[C@H]1CC[C@@H](OC(=O)Cc2ccccc2)CNC1=O)[C@H](O)[C@@H](O)[C@H](O)/C=C/C(C)(C)C [Ex. 7]"
  IC50 [nM]: 262

Next, consider the following molecule.
**Q:** Entry CO[C@@H](C(=O)N[C@H]1CC[C@@H](OC(=O)C2CCCC2)CNC1=O)[C@H](O)[C@@H](O)[C@H](O)/C=C/C(C)(C)C [Ex. 2] : reported IC50 = ?
**A:** 128

Values were extracted from patent US6555533B2.
